Data origin, for the record: patent US20210032351A1

Target: T1, human EGFRvIII-hFc protein (human, UniProt P00533 25-645)
T1 construct: extracellular domain; made in HEK293 cells, purified on protein A; also called immunogen A; hFc-tagged EGFRvIII protein; not shown: human IgG Fc fragment (hFc) of the pCpC vector
Test: ELISA, coated EGFRvIII-hFc, antibody 1 nM
OBSERVATION TYPE: OD450 nm
No unit in the answer, please; the number alone is enough.

The binder Murine anti-53D8 (antibody, V domains shown, murine hybridoma antibody; also called 53D8H4) VH: QVQLQQSGAELARPGASVKMSCKASGYTFTSYTMHWVKQRPGQGLEWIGYINPSSGYTKYNQIFKDKATLTADKSSSTAYMQLSSLTSEDSAVYYCTRGGGRGFAYWGQGTLVTVSA VL: DILMTQSPSSMSVSLGDTVSITCHASQDINSNIGWLQQKPGKSFKGLIYHGTNLEDGVPSRFSGSGSGADYSLTISSLESEDFADYYCVQYAQFPFTFGSGTKLEIK showed OD450 nm equal to 3.2

Reported OD450 nm of Murine anti-64B11 (antibody, V domains shown, murine hybridoma antibody; also called 64B11F2) VH: EVQLQQSGAELVKPGASVKLSCTASGFNIKDYYMHWVKQRTEQGLEWIGRIDPEDGETKYAPKFQGKATITADTSSNTAYLQLSNLPSEDTAVYYCGCRTGGFAYWGQGTLVTVSA VL: DILMTQSPSSMSVSLGDTVSITCHASQGINSNIGWLQQKPGKSFKALIYHGTNLEDGVPSRFSGSGSGADYSLTISSLESEDFADYYCVQYAQFPFTFGSGTELEIK : 1.58

OD450 nm for Murine anti-43H6 (antibody, V domains shown, murine hybridoma antibody; also called 43H6A1) VH: INAEYAGGPGLVKPSQSLSLTCTVTDYSITSDYAWNWIRQFPGNKLEWMGYISYSGNTNYNPSLKSRISITRDTSKNQFFLQLNSVTTEDTATYYCARLGRGFAYWGQGTLVTVSA VL: DILMTQSPSSMSVSLGDTVSITCHASQDINSNIGWLQQKPGTSFKGLIYHGRNLEDGVPSRFSGSGSGEDYSLTISSLESEDFADYYCVQYAHFPPTFGAGTKLELK is 3.86
